Test system: HeLa
Assay: Cytotoxicity against human HeLa cells after 48 hrs by MTT assay
Format: functional, cell-based
METRIC NAME: IC50 (µM)
Report only the number, with the unit µM understood.

Worked cases, answers included:
INSERT INTO measurements (compound, meas_value) VALUES
  ('CC(=O)OC1CCCC(OC(C)=O)CCCC(OC(C)=O)CCCC(OC(C)=O)CCC[C@@H](OC(C)=O)C[C@@H](OC(C)=O)CCC/C(C)=C\C(=O)OC(C(C)(C)C)CC(OC(C)=O)CCCC(OC(C)=O)CCCC(OC(C)=O)CCC1 (some centres undefined)', 18),
  ('C[C@@H]1[C@H](O)[C@@H](C)/C=C/C=C/C=C/C=C/C=C/C=C/C=C/[C@H](O[C@@H]2O[C@H](C)[C@@H](O)[C@H](N)[C@@H]2O)C[C@@H]2O[C@](O)(C[C@@H](O)C[C@@H](O)[C@H](O)CC[C@@H](O)C[C@@H](O)CC(=O)O[C@H]1C)C[C@H](O)[C@H]2C(=O)O', 10),
  ('C/C1=C/C(=O)OC(C(C)(C)C)CC(O)CCCC(O)CCCC(O)CCCC(O)CCCC(O)CCCC(O)CCCC(O)CCC[C@@H](O)C[C@@H](O)CCC1 (some centres undefined)', 0.87);

Now take the following compound into account.
Using the record for CC(=O)OC1CCCC(O)CCCC(O)CCCC(O)CCCC(O)CCCC(O)CCC[C@@H](O)C[C@@H](O)CCC/C(C)=C\C(=O)OC(C(C)(C)C)CC(O)CCC1 (some centres undefined) , state its measured IC50. 9.9

====

System: HT-29
Test: Cytotoxicity against human HT-29 cells after 48 hrs by MTT assay
Assay type: functional, cell-based
Conditions: HT-29, 48 h
METRIC NAME: IC50 (µM)
Give the quantity in µM, number only.

Would you please look over these solved cases?
INSERT INTO measurements (compound, measured_on, unit_descriptor, meas_value) VALUES
  ('C[C@@H]1[C@H](O)[C@@H](C)/C=C/C=C/C=C/C=C/C=C/C=C/C=C/[C@H](O[C@@H]2O[C@H](C)[C@@H](O)[C@H](N)[C@@H]2O)C[C@@H]2O[C@](O)(C[C@@H](O)C[C@@H](O)[C@H](O)CC[C@@H](O)C[C@@H](O)CC(=O)O[C@H]1C)C[C@H](O)[C@H]2C(=O)O', 'HT-29', 'µM', 10),
  ('C/C1=C/C(=O)OC(C(C)(C)C)CC(O)CCCC(O)CCCC(O)CCCC(O)CCCC(O)CCCC(O)CCCC(O)CCC[C@@H](O)C[C@@H](O)CCC1 (some centres undefined)', 'HT-29', 'µM', 0.87),
  ('CC(=O)OC1CCCC(O)CCCC(O)CCCC(O)CCCC(O)CCCC(O)CCC[C@@H](O)C[C@@H](O)CCC/C(C)=C\C(=O)OC(C(C)(C)C)CC(O)CCC1 (some centres undefined)', 'HT-29', 'µM', 12);

In one line, give reported IC50 of the entry CC(=O)OC1CCCC(OC(C)=O)CCCC(OC(C)=O)CCCC(OC(C)=O)CCC[C@@H](OC(C)=O)C[C@@H](OC(C)=O)CCC/C(C)=C\C(=O)OC(C(C)(C)C)CC(OC(C)=O)CCCC(OC(C)=O)CCCC(OC(C)=O)CCC1 (some centres undefined) . 58
